Reported EC50 values follow for various molecules
- System: HCV replicon in Huh7 cells
- protocolNotes: HCV replicon cell-based assay
- Design: species or system HCV strain 1B
- conditionSummary: Hepatitis C virus, Huh-7; HCV replicon, Huh7 cells; read-out: EC50 range

// known answers, use as guide
C=C[C@@H]1C[C@]1(NC(=O)[C@@H]1CC(Oc2nccc3cc(OC)ccc23)CN1C(=O)[C@@H](NC(=O)N(C)OC)C(C)(C)C)C(=O)NS(=O)(=O)C1CC1 (stereo partly drawn); 1000 to 10000 nM
C=C[C@@H]1C[C@]1(NC(=O)[C@@H]1CC(Oc2nccc3cc(OC)ccc23)CN1C(=O)[C@@H](NC(=O)OC(C)(C)c1ccccc1)C(C)(C)C)C(=O)NS(=O)(=O)C1CC1 (stereo partly drawn); 100 to 1000 nM

Next up:
q: What value of EC50 has been recorded for this entry: C=CC1C[C@]1(NC(=O)[C@@H]1C[C@@H](Oc2nccc3c(C(=O)c4cccs4)c(OC)ccc23)CN1C(=O)[C@@H](NC(=O)OC(C)(C)C)C(C)(C)C)C(=O)NS(=O)(=O)C1CC1 (stereo partly drawn)
a: 100 to 1000 nM

---

- targetSystem: HCV NS3/4A protease complex, BMS strain (UniProt P27958, C1454S/C1711G, species not given/STRAIN_BMS)
- protocolNotes: Recombinant HCV NS3/4A protease complex FRET peptide assay (BMS strain)
- Assay type: biochemical, HCV genotype 1a
- conditionSummary: NS3/4A BMS strain; read-out: IC50 range
pIC50: −log10 of the molar value.
experimentalEndpoint: pIC50

Known pIC50 results, listed for orientation:
C=CC1C[C@]1(NC(=O)[C@@H]1C[C@@H](Oc2nc3ccccc3nc2O)CN1C(=O)[C@@H](NC(=O)OC(C)(C)C)C(C)(C)C)C(=O)NS(=O)(=O)C1CC1 (some centres unmarked); 6.00 to 7.00
CC[C@@H]1C[C@]1(NC(=O)[C@@H]1C[C@@H](Oc2nccc3c(F)c(OC)ccc23)CN1C(=O)[C@@H](NC(=O)OC(C)(C)C)C(C)(C)C)C(=O)NS(=O)(=O)C1CC1; > 7.00

q: Entry under review: C=C[C@@H]1C[C@]1(NC(=O)[C@@H]1C[C@@H](Oc2nccc3ccccc23)CN1C(=O)[C@@H](NC(=O)Oc1ccc(OC)cc1)C(C)(C)C)C(=O)NS(=O)(=O)C1CC1 . Reported pIC50?
a: > 7.00

q: Field entry: C=C[C@@H]1C[C@]1(NC(=O)[C@@H]1CC(Oc2nccc3cc(OC)ccc23)CN1C(=O)[C@@H](NC(=O)N(CC)CC)C(C)(C)C)C(=O)NS(=O)(=O)C1CC1 (some centres unmarked)
a: > 7.00

q: Ok, now C=C[C@@H]1C[C@]1(NC(=O)[C@@H]1C[C@@H](Oc2ccnc(-c3ccsc3)c2)CN1C(=O)[C@@H](NC(=O)OC1CCCC1)C(C)(C)C)C(=O)NS(=O)(=O)C1CC1
a: > 7.00

q: Query C=C[C@@H]1C[C@]1(NC(=O)[C@@H]1C[C@@H](Oc2cncc(-c3nccs3)c2)CN1C(=O)[C@@H](NC(=O)OC(C)(C)C)C(C)(C)C)C(=O)NS(=O)(=O)C1CC1 next
a: > 7.00

q: Can you handle C=C[C@@H]1C[C@]1(NC(=O)[C@@H]1C[C@@H](Oc2nccc3cc4c(cc23)OC(F)(F)O4)CN1C(=O)[C@@H](NC(=O)OC(C)(C)C)C(C)(C)C)C(=O)NS(=O)(=O)C1CC1 next?
a: > 7.00

q: Can you check C=C[C@@H]1C[C@]1(NC(=O)C1C[C@@H](Oc2nc(C(F)(F)F)nc3cc(OC)c(OC)cc23)CN1C(=O)[C@@H](N)C(C)(C)C)C(=O)NS(=O)(=O)C1CC1 (some centres unmarked) next?
a: 5.00 to 6.00

q: Cool, now C=C[C@@H]1C[C@]1(NC(=O)[C@@H]1C[C@@H](Oc2cc(-c3cccs3)ncn2)CN1C(=O)[C@@H](NC(=O)OC(C)(C)C)C(C)(C)C)C(=O)NS(=O)(=O)C1CC1
a: > 7.00

q: # repeat for C=C[C@@H]1C[C@]1(NC(=O)[C@@H]1C[C@@H](Oc2nccc3ccccc23)CN1C(=O)[C@@H](NC(=O)OCCOC)C(C)(C)C)C(=O)NS(=O)(=O)C1CC1
a: 6.00 to 7.00

q: Continue with C=CC1C[C@]1(NC(=O)[C@@H]1C[C@@H](Oc2nc(-c3cnc(N(C)C)s3)cc3cc(OC)ccc23)CN1C(=O)[C@@H](NC(=O)OC(C)(C)C)C(C)(C)C)C(=O)NS(=O)(=O)C1CC1 (some centres unmarked)
a: > 7.00

q: Subsequent entry: CC[C@@H]1C[C@]1(NC(=O)[C@@H]1C[C@@H](Oc2nccc3cccc(C)c23)CN1C(=O)[C@@H](NC(=O)OC(C)(C)C)C(C)(C)C)C(=O)NS(=O)(=O)C1CC1
a: 6.00 to 7.00

q: Would you mind doing C=CC1C[C@]1(NC(=O)[C@@H]1C[C@@H](Oc2nccc(-c3ccccc3)n2)CN1C(=O)[C@@H](NC(=O)OC)C(C)(C)C)C(=O)NS(=O)(=O)C1CC1 (some centres unmarked) as well?
a: > 7.00

q: Input C=C[C@@H]1C[C@]1(NC(=O)C1C[C@@H](Oc2nc(-c3ccccc3)nc3ccc(OC)cc23)CN1C(=O)[C@@H](N)C(C)(C)C)C(=O)NS(=O)(=O)C1CC1 (some centres unmarked)
a: 6.00 to 7.00

q: Now try C=CC1C[C@]1(NC(=O)[C@@H]1C[C@@H](Oc2nc(-c3nccs3)c(OC)c3ccccc23)CN1C(=O)[C@@H](NC(=O)OC(C)(C)C)C(C)(C)C)C(=O)NS(=O)(=O)C1CC1 (some centres unmarked) .
a: > 7.00

q: Follow-up entry: C=C[C@@H]1C[C@]1(NC(=O)[C@@H]1CC(Oc2nccc3cc(OC)ccc23)CN1C(=O)[C@H](CCC)N(C)C(=O)OC(C)(C)C)C(=O)NS(=O)(=O)C1CC1 (some centres unmarked)
a: 5.00 to 6.00

q: Moving on to C=C[C@@H]1C[C@]1(NC(=O)[C@@H]1CC(Oc2nccc3cc(OC)ccc23)CN1C(=O)[C@@H](NC(=O)NC(C)(C)Cc1ccc(F)cc1)C(C)(C)C)C(=O)NS(=O)(=O)C1CC1 (some centres unmarked)
a: > 7.00

q: Can you handle C=C[C@@H]1C[C@]1(NC(=O)[C@@H]1C[C@@H](Oc2nccc3cc(OC)ccc23)CN1C(=O)[C@@H](NC(=O)NC1CCCC1)[C@H](C)OC)C(=O)NS(=O)(=O)C1CC1 next?
a: > 7.00

q: Now this one: C=CC1C[C@]1(NC(=O)[C@@H]1C[C@@H](Oc2nnc(Cl)c3ccccc23)CN1C(=O)[C@@H](NC(=O)OC(C)(C)C)C(C)(C)C)C(=O)NS(=O)(=O)C1CC1 (some centres unmarked)
a: > 7.00

q: What about this compound? C=CC1C[C@]1(NC(=O)[C@@H]1C[C@@H](Oc2ccc3c(Cl)nccc3c2)CN1C(=O)[C@@H](NC(=O)OC(C)(C)C)C(C)(C)C)C(=O)NS(=O)(=O)C1CC1 (some centres unmarked)
a: > 7.00
